Recorded values, source the supplement of paper PMC9170038.

- Test system: K4 kissing-loop RNA reporter
- test_name: apparent KD of K4 kissing-loop reporter; higher = weaker reporter binding
- condition: Eterna round: R107; input ligand: FMN 200 uM
Measured apparent KD of K4 kissing-loop reporter accompanies every entry in the list below.
Number only, in nM; omit the unit.

seq_text: AGGCCCGGCCGAAAGGCCGGGCCAAGAGAUACCAGCAGCGAAAGCUGCCCUUGGCAGCUCACUUAGUGAUGUUAAGAGAUAAAUG [SS Theo A Tesla 1.2]
measurement_label: apparent KD of K4 kissing-loop reporter
endpoint_result: 365

// apparent KD of K4 kissing-loop reporter lookup, key: AAUAAGGAGUGAUGUUCCAAGUGAUGUUAACGAGGACCGGUACGGCCGCCACUCGAUACGGCCGGAAAGUAAGAUAAACUAAAAU [Same State - Tryptophan A (Freestyle 2)]
61

Let us now turn to UGCGCUGUGUCCUGAAAUGUCCUCCGGGAUACCAGAGUCUUUUUAUUCCCUUGGCAGCUUGAGUGAUGUUUGAUGCCGUUCUUGU [yvvymullin]
668

What would you report for UGGAUAUAGUGAUGUUAUAUAGAGAGUGAUACCAGUUUAGAGAAGAACCCUUGGCAGCAUAGAAGAGUAUCAUUGGAGAAGAAUG [ExTheophyl.Aq] ?
243

// repeat for CGAUACGGAAAUACGUGUCUCUAUUCAGAAGGAGCGUGGUAGUACACAGGUAGGUCGCUGAAAUUUAAACUAGUGAUGUUAGACU [JR_SSArginiA_Sub004] and report
1330

Another sequence to check: UUUCGUUGAAGUGAUACCAGACUUGAAAGUGAUGUUUUCCAAUAAUUUAAAUUAUUAGCUGUCCCUUGGCAGCACAGUUUAUUUA [JR_ExcTheophyB_Sub007]
255

And what about the sequence AAGGCCACGAGAAGGAGCGUGUUGUGGAGUGAUGUUCCAUUGUAGACCUAAGGUCUACAAGCACAGGUAGGUCGCUCGUGGUCAA [Omei KL Arginine B SS A v5] ?
131

Another sequence to look at: GCAGUGAUGUUGCUGAUGUGCAGUGGUAGUCGAGGACCGGUACGGCCGCCACUCGGUGAGAAUUUGCUAAUACAUCGAUAAGUGA [XVII]
1210

----------
- System: MS2 coat protein
- test_name: apparent KD of MS2 coat protein; designed switch direction (-1 OFF switch, 1 ON switch): -1; higher = weaker reporter binding
- condition: input ligand: none
measurement_label: apparent KD of MS2 coat protein (µM)
Give the quantity in µM, number only.

What does the record list as apparent KD of MS2 coat protein for UAUUCGAUAGGAUAUGCACAUCAUUUGGGAGGUAACAGUGCACAUGAGGAUCACCCAUGUAGAAGGAUCUGGAU [Eternabot (L2) Solution 46] (Eterna round: R97, puzzle: Exclusion 2) ?
0.118

And then AAUAGUAAUAAGGAUAUCACUAGCUUCGGCUAGUGAGAAGGUAUUACAUGAGGAUCACCCAUGUGGUCAAUUAA [E6/4-A1] (Eterna round: R97, puzzle: Exclusion 6) , what is it?
0.922

Okay, and GAUAUGUAAGGAUAUCGUGCAAGUUUCAAAAGAGGCUUGUGCGAGAAGGUACAUGAGGAUCACCCAUGUAGGUU [Omei Ex4 B14] (Eterna round: R97, puzzle: Exclusion 4) ?
0.0296

Quick one: ACCAGACAUGAGGAUCACCCAUGUCAGGAUAUUAUUCUACCUGAAGUUCGGGAUUGUGUGAGAAGGGACUGGGA [Eternabot (L2) Solution 86] (Eterna round: R97, puzzle: Exclusion 1)
0.0161

Let us now turn to UAUUACGCAAGCAGGUCCCACAUGAGGAUCACCCAUGUGCUCGUCUUAUAACGAUCUGUGGGAAAACCUACGGAUCG [Elimod 19 - Jieux - Sensor, turn-off variant 1] (Eterna round: R97, puzzle: Sensor, turn-off variant 1)
0.0484

----------
- System: MS2 coat protein
- test_name: apparent KD of MS2 coat protein; designed switch direction (-1 OFF switch, 1 ON switch): -1; higher = weaker reporter binding
- condition: input ligand: FMN 200 uM
Binned apparent KD of MS2 coat protein; ranges: bottom end = under 60 nM, midrange = from 60 nM up to 200 nM, top end = 200 nM and over

Examples with answers:
seq_text: ACCUCACUUGAGGAUCACCCAAGUCAGGAUAUACUCGUUUGCCGCGCGACGCGGCAUUGUAGAAGGGACGGGCU [Orquisates] (Eterna round: R97, puzzle: Exclusion 1)
group: bottom end
--
seq_text: AAGUCGAGCGUGAGGAUAUUGACCGGACGACCCAUCGAGAAGGCACAUGAGGAUCACCCAUGUGAUUCAGCUCA [Brourd's EX4 #52] (Eterna round: R97, puzzle: Brourd's mod of Exclusion 4)
group: bottom end
--
seq_text: UAAAGUGAGUCCUCGCAGCAGCGUAGGGCGGUGCUAGCUACAUGAGGAUCACCCAUGUUUUCGCUCGUCCAGCACCU [Ceaorreti] (Eterna round: R96, puzzle: Sensor v2, turn-off variant 2)
group: midrange

Categorize the following entry: GGAGCAAUGGAGGAUAUCAGGAGCGCUGCUUACUGAGAAGGCCGUACAUGAGGAUCACCCAUGUCUGGGUACGC [Eternabot (L1) Solution 21] (Eterna round: R97, puzzle: Exclusion 6)
midrange

For CCCUCACUUGAGGAUCACCCAAGUCAGGAUAUCUCACCCGUCCUGCAAGACGGGUCACAGAGAAGGGACUAAAA [Araatra] (Eterna round: R97, puzzle: Exclusion 1) then?
midrange

Same question, ACUCAACAGUAGGAUAUCAUCAAACUAUUGUGAUGAGAAGGACUGACAUGAGGAUCACCCAUGUUAACGUGAAG [Mod of Brourd 3 - Jieux - Exclusion 6] (Eterna round: R97, puzzle: Exclusion 6) this time
bottom end

Record: ACAAGCUUUUAGUUCGUCUUAUACACUCCUAAUAAGAAAACAUGAGGAUCACCCAUGUAAGAAAUAAGAACUCAUGU [Sesor Array 2 - Jieux - Sensor v3, turn-off variant 2] (Eterna round: R96, puzzle: Sensor v3, turn-off variant 2)
midrange

Do the same for GGCGAAGUAGGAUAUACAUGAGGAUCACCCAUGUUACCUGAUGGCGUAGGUCUUCUAUGUAGAAGGGCUACGCC [jl-ex3-4.36 ViennaUCT mod] (Eterna round: R97, puzzle: Exclusion 3) please
bottom end

Then this sequence: AUAAUUUAAGGAUAUACGUGGCGAGCCAGAUAGCUGGGUCUACAUGAGGAUCACCCAUGUAGAAGGUAAGGAUU [Eternabot (L1) Solution 23] (Eterna round: R97, puzzle: Exclusion 2)
bottom end

Now give it for AUCAGCUCGUGAGGAUAUACAUCACUGCUUCGGCAGUGUAUUAAGAUCACAUGAGGAUCACCCAUGUAGAAGGCACGAGCUGAU [ENG2/2-A3] (Eterna round: R96, puzzle: Exclusion NG 2) too.
top end

----------
- System: MS2 coat protein
- test_name: apparent KD of MS2 coat protein; higher = weaker reporter binding
- condition: Eterna round: R107; input ligand: none
Quick reference for apparent KD of MS2 coat protein among some sequences
Numeric answer only, unit nM assumed.

seq_text: UGUGUUGUCCGAAGGAGCGGGACCUAAUAGUGGUAACAUGAGGAUCACCCAUGUAUUUCGUCCCAGGUAGGUCGCGGACAGUGUA [ArgiB-ms2@36]
scale_unit: nM
apparent KD of MS2 coat protein: 20.7
--
seq_text: CCUAUGCAGUCGGCCGCCACUGAACAUGAGGAUCACCCAUGUAAUUAUAAAUAUGGUCCUAAAAUCAGGACCGGGACUGUAUAGG [Ex Tryptophan B 7]
scale_unit: nM
apparent KD of MS2 coat protein: 64.2
--
seq_text: UGUGACAUGAGGAUCACCCAUGUAAGGGAAGGAGCGCCGAAUAAGGCAGGUAGGUCGCCCAAGAUAGAAGAAUAAUAAGAUUGUG [Arginine A Same State; Euphoria Solution]
scale_unit: nM
apparent KD of MS2 coat protein: 27.1
--
seq_text: AGCGCAUCCGUAUAGGAUGCGCUCCAUGAAGGAGCGCGGGAAACCGCAGGUAGGUCGCGUGACAUGAGGAUCACCCAUGUGUAUU [#17 Same State - Arginine A]
scale_unit: nM
apparent KD of MS2 coat protein: 20
--
seq_text: GCUACAUGAGGAUCACCCAUGUGUACUGAAGGAGCGGCGGAAACGCCAGGUAGGUCGCAGUAUGUGGCUCUGGGCACGAGAAAGC [SSAA NP+V+V2 #2]
scale_unit: nM
apparent KD of MS2 coat protein: 25.3

Please report the recorded apparent KD of MS2 coat protein for GCCUAGCAGCGAAGGAGCGACAUCGGCGCAUGCGAGGACAUGAGGAUCACCCAUGUACCAUGUCAGGUAGGUCGCGCUGCUAGGC [EAB NP+V+V2 #6] .
23.4

----------
- Tested on: K4 kissing-loop RNA reporter
- test_name: apparent KD of K4 kissing-loop reporter; higher = weaker reporter binding
- condition: Eterna round: R107; input ligand: FMN 200 uM
Criterion: apparent KD of K4 kissing-loop reporter meeting or surpassing 400 nM. Met: YES. Not met: NO.

seq_text: CGAGUGAUGUUCGUUUUUUACUCUGUUUGACAGGAUAUGCGGAAACGCAGAAGGGUCACCUUUGAGUUAAACGGAGUUAUUUUUU [Ex FMN A 20]
study_target: K4 kissing-loop RNA reporter
group: YES
//
seq_text: UGUAUGUGAUUUGAUACCAGACCAUCUUGUGAAUGAUGAGUGAUGUUUAUUAUGGUUUGGGUCCCUUGGCAGCAAAUCGCAUACU [KL-SSTheoB25]
study_target: K4 kissing-loop RNA reporter
group: YES
//
seq_text: AUGGUGGAUCAGUGAUGUUGGUGGAGUACGUAGGAUAUGAGUGAUGUUAGAAGGAUGGGAGUGAUGUUCCAGGUGGUUGUGUUGU [KL-SSFMN-A1]
study_target: K4 kissing-loop RNA reporter
group: YES
//
seq_text: UGUGAACAAAAGUAGAGUGGACCACUAUAGCGAGGACCGGUACGGCCGCCACUCGUGUAUGAAUUCAGUGAUGUUGAAAAGAGCU [whbob_EX_Tryp_A_t11]
study_target: K4 kissing-loop RNA reporter;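 further: bound reporter read as fluorescence of individual clusters on recovered sequencing chips by microscopy, with normalized cluster intensities fitted with a binding model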
group: NO

# check: apparent KD of K4 kissing-loop reporter of CAUACGCAUGGAGGAUAUGGGAUUACUCAUAUUACCCUGUAACAGGUAUCUCAGUGAUGUUGAGACUCAGAAGGCCAUGUGUAUG [Ex FMN B 23] is greater than or equal to 400 nM
YES

Could you do the same for ACUGGAAUUGUACUCCAGUGAUGUUGGAGGCAGGAUAUCCAGUAAAGGAGAAGGGCCAUCGCGCUAUUUGGCCGCAGGCGGCCAG [Acela] , please?
NO
